- target-or-test-system: T1, recombinant human TROP2 extracellular domain (aa 1-274) comprising His tag (human, UniProt P09758 27-274)
- T1 construct: Used here for all assays on recombinant human TROP2 (ELISA, immunoblot, SPR, crystal), although only some of them name the catalogue number; also called human recombinant TROP2; recombinant human TROP2 protein; not shown: His tag
- T1 sequence: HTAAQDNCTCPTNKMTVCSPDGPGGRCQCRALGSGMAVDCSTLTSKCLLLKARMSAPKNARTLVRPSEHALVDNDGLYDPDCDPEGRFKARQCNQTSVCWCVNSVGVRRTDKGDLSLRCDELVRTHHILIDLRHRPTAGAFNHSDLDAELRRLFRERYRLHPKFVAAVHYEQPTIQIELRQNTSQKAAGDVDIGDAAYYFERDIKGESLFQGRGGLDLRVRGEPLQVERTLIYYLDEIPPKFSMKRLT
- measurement-description: SPR
measure: pKd
One number for each entry, as −log10 of the molar value.

Study these solved cases before continuing.
[
  {
    "binder": "KD004 (antibody, human IgG1, V domains shown, also called anti-TROP2 sdAb KD004) VH: QVQLQESGGGLVQPGRSLRLSCAASGFTFSGSDMSWVRQAPGKGPEWVSYITGSGTTYYPDSVKGRFTTSRDNAKNMLYLQMNSLKPDDTALYRCAKARLTDSHYVEDAWGQGTQVTVSS",
    "experimental-result": 10.53
  },
  {
    "binder": "KD003 (antibody, human IgG1, V domains shown, also called anti-TROP2 sdAb KD003) VH: QVQLQESGGGMVQPGGSLRLSCAASGFTFSNYDMSWVRQAPGKGPEWVSYINAGGSNTDYPDSVKGRFTISRDNAKNMLYLLMNNLKPEDTALYRCARAKLTDTHYVEDYWGQGTQVTVSS",
    "experimental-result": 10.05
  }
]

Batch lookup, pKd per entry.
1. KD005 (antibody, human IgG1, V domains shown, also called anti-TROP2 sdAb KD005) VH: QVQLQESGGGLVEAGGSLRLSCAASGFTFSGSDMSWVRQAPGKGPEWVSYITSGGTTYYPDSVKGRFTISRDNAKNTLYLQMNSLKPDDTALYRCAKSRLTDSHYVEDAWGQGTQVTVSS
2. KD002 (antibody, human IgG1, V domains shown, also called anti-TROP2 sdAb KD002) VH: QVQLQESGGGMVQVGGSLRLSCAASGFPFSSADMSWVRQAPGKGPEWVSYINADGSKTYYPDSVKGRFTISRDNAKNTLYLLMNNLKPEDTALYRCARAKLTDTHYVEDYWGQGTQVTVSS
3. KD001 (antibody, human IgG1, V domains shown, also called anti-TROP2 sdAb KD001) VH: QVQLQESGGGMVHPGGSLRLSCAASGFTFSGSDMSWVRQAPGKGPEWVSYITSGGTTYYPDSVKGRFTISRDNAKNTLYLQMNSLTPDDTALYRCAKARLTDSHYVEDAWGQGTQVTVSS

Result block:
1: 10.57; 2: 10.36; 3: 10.08

Source of measurements: patent US20240360242A1
